system: MT-4 cell line; test: Cytotoxicity assay in vitro (MTT, virus omitted); format: cell-based; conditions: human, 6 days
Counter-ions that a name gives are not always drawn.

COMPOUND	TARGET OR SYSTEM	CCIC50
Cc1nc(N=Nc2cccc(S(=O)(=O)N3CCOCC3)c2)c(COP(=O)(O)O)c(C=O)c1O	MT-4 cell line	>100 µM
Cc1ccc(C(=O)O)cc1N=Nc1nc(C)c(O)c(C=O)c1COP(=O)(O)O	MT-4 cell line	>100 µM
Cc1nc(N=Nc2cccc(C(=O)Nc3cccc4cnccc34)c2)c(COP(=O)(O)O)c(C=O)c1O	MT-4 cell line	>100 µM
Cc1nc(N=Nc2cccc(C(=O)Nc3cccnc3)c2)c(COP(=O)(O)O)c(C=O)c1O	MT-4 cell line	50 µM
Cc1nc(N=Nc2cc(C(=O)O)cc(C(=O)O)c2)c(COP(=O)(O)O)c(C=NO)c1O	MT-4 cell line	60 µM
Cc1nc(N=Nc2ccc(S(=O)(=O)NC34CC5CC(CC(C5)C3)C4)cc2)c(COP(=O)(O)O)c(C=O)c1O [Example 3, Hydrochloride]	MT-4 cell line	12 µM
Cc1nc(N=Nc2cccc(C(=O)O)c2Cl)c(COP(=O)(O)O)c(C=O)c1O	MT-4 cell line	>100 µM
Cc1nc(N=Nc2cc(C(=O)O)cc(C(=O)O)c2)c(COP(=O)(O)O)c(C=O)c1O [Example 22]	MT-4 cell line	>100 µM
Cc1nc(N=Nc2ccc(S(=O)(=O)Nc3nccs3)cc2)c(COP(=O)(O)O)c(C=O)c1O	MT-4 cell line	>100 µM
Cc1nc(N=Nc2cccc(C(=O)Nc3cccc4c3CCCN4)c2)c(COP(=O)(O)O)c(C=O)c1O	MT-4 cell line	84 µM
Cc1nc(N=Nc2ccc(S(=O)(=O)Nc3ncccn3)cc2)c(COP(=O)(O)O)c(C=O)c1O	MT-4 cell line	>100 µM
Cc1nc(N=Nc2cccc(S(=O)(=O)NC(C)(C)C)c2)c(COP(=O)(O)O)c(C=O)c1O	MT-4 cell line	57 µM
Cc1nc(N=Nc2cc(F)c(F)c(C(=O)O)c2F)c(COP(=O)(O)O)c(C=O)c1O	MT-4 cell line	>100 µM
Cc1nc(N=Nc2cccc(C(=O)O)c2C)c(COP(=O)(O)O)c(C=O)c1O	MT-4 cell line	>100 µM
Cc1nc(N=Nc2ccc(S(N)(=O)=O)cc2)c(COP(=O)(O)O)c(C=O)c1O	MT-4 cell line	>100 µM
CCOC(OCC)c1c(O)c(C)nc(N=Nc2cc(C(=O)O)cc(C(=O)O)c2)c1COP(=O)(O)O	MT-4 cell line	>100 µM

---

Each entry below carries its recorded IC50.
biological target: HIV-1 integrase (Human immunodeficiency virus type 1 group M subtype B); assay: HIV-1 integrase inhibition assay in vitro (radiolabeled duplex substrate, U5 end of HIV LTR); assay type: biochemical; conditions: concentration of drug required to reduce the enzyme activity by 50%; read-out: IC50
ATTRIBUTE MEASURED: IC50 (µM)

SMILES NOTATION	ATTRIBUTE MEASURED	ASSAY VALUE
Cc1nc(N=Nc2ccc(S(=O)(=O)NC3CCCCC3)cc2)c(COP(=O)(O)O)c(C=O)c1O	IC50	2.2
Cc1cc(NS(=O)(=O)c2ccc(N=Nc3nc(C)c(O)c(C=O)c3COP(=O)(O)O)cc2)nc(C)n1	IC50	2.75
Cc1nc(N=Nc2ccc(S(=O)(=O)NCC(C)C)cc2)c(COP(=O)(O)O)c(C=O)c1O	IC50	2.45
Cc1nc(N=Nc2ccc(S(=O)(=O)NC(C)(C)C)cc2)c(COP(=O)(O)O)c(C=O)c1O	IC50	4.25
Cc1nc(N=Nc2ccc(S(=O)(=O)Nc3ccon3)cc2)c(COP(=O)(O)O)c(C=O)c1O	IC50	3
Cc1nc(N=Nc2cc(C(=O)O)ccc2Cl)c(COP(=O)(O)O)c(C=O)c1O	IC50	3.35
CNS(=O)(=O)c1ccc(N=Nc2nc(C)c(O)c(C=O)c2COP(=O)(O)O)cc1	IC50	1.2
Cc1nc(N=Nc2cccc(S(=O)(=O)NCCO)c2)c(COP(=O)(O)O)c(C=O)c1O	IC50	2.45
Cc1nc(N=Nc2ccc(C(=O)NC(C)(C)C)cc2)c(COP(=O)(O)O)c(C=O)c1O	IC50	2.73
Cc1nc(N=Nc2ccc(C(N)=O)cc2)c(COP(=O)(O)O)c(C=O)c1O	IC50	8.7
Cc1nc(N=Nc2ccccc2[N+](=O)[O-])c(COP(=O)(O)O)c(C=O)c1O	IC50	5.25
Cc1nc(N=Nc2ccc(S(=O)(=O)Nc3cccc(F)c3)cc2)c(COP(=O)(O)O)c(C=O)c1O	IC50	10.5
Cc1nc(N=Nc2cccc(S(=O)(=O)NCC(C)C)c2)c(COP(=O)(O)O)c(C=O)c1O	IC50	1.9
